Test: Evaluation of conversion rate to active form in buffer solution (Experimental Example 1)
Assay type: physicochemical
Details: pH5.0, 2 hr, 37° C., 25 umol/L in buffer solution
Structures can show the parent of a compound that is named as a salt.
Note to self: use condition met only for Production rate of Alvocidib readings below 1%; a reading exactly at 1% still gets condition not met.

Illustrative cases are given below, each with its answer.
>  <Compound>
CCN(CCC1CCCCN1)C(=O)Oc1cc(O)c2c(=O)cc(-c3ccccc3Cl)oc2c1[C@H]1CCN(C)C[C@H]1O (stereo partly drawn)

>  <Qualitative label>
condition met

$$$$
>  <Compound>
CN1CC[C@H](c2c(OC(=O)N(C)C[C@H]3CCCCN3)cc(O)c3c(=O)cc(-c4ccccc4Cl)oc23)[C@H](O)C1

>  <Qualitative label>
condition not met

$$$$
>  <Compound>
CCN(C[C@@H]1CCCCN1)C(=O)Oc1cc(O)c2c(=O)cc(-c3ccccc3Cl)oc2c1[C@H]1CCN(C)C[C@H]1O [Example 1, ditrifluoroacetate]

>  <Qualitative label>
condition not met

$$$$
>  <Compound>
CCN(CC1CCCCN1)C(=O)Oc1cc(O)c2c(=O)cc(-c3ccccc3Cl)oc2c1[C@H]1CCN(C)C[C@H]1O (stereo partly drawn) [Example 7, dihydrochloride]

>  <Qualitative label>
condition not met

$$$$
>  <Compound>
CN1CC[C@H](c2c(OC(=O)N(CCC(F)(F)F)CC3CCCCN3)cc(O)c3c(=O)cc(-c4ccccc4Cl)oc23)[C@H](O)C1 (stereo partly drawn)

>  <Qualitative label>
condition not met

$$$$

Below: the item to evaluate.
is_below(Production rate of Alvocidib, 1%) for CN1CC[C@H](c2c(OC(=O)N(CCCC(F)(F)F)CC3CCCCN3)cc(O)c3c(=O)cc(-c4ccccc4Cl)oc23)[C@H](O)C1 (stereo partly drawn) ?
condition not met

###

Test: Evaluation of conversion rate to active form in buffer solution (Experimental Example 1)
Type: physicochemical
Details: pH7.4, 0.5 hr
# if value of Production rate of Alvocidib reaches 20%, tag label 1; if it stays below, tag label 0

Illustrative cases are given below, each with its answer.
>  <Molecule>
CNC(=O)O[C@@H]1CN(C)CC[C@@H]1c1c(O)cc(O)c2c(=O)cc(-c3ccccc3Cl)oc12 [Comparative Example 5, reference compound]

>  <Qualitative label>
label 0

$$$$
>  <Molecule>
CNC(=O)Oc1cc(O)c2c(=O)cc(-c3ccccc3Cl)oc2c1[C@H]1CCN(C)C[C@H]1O [Comparative Example 2, reference compound]

>  <Qualitative label>
label 1

$$$$
>  <Molecule>
C[C@H](N)C(=O)O[C@@H]1CN(C)CC[C@@H]1c1c(O)cc(O)c2c(=O)cc(-c3ccccc3Cl)oc12 [Comparative Example 7, reference compound]

>  <Qualitative label>
label 1

$$$$
>  <Molecule>
CCOC(=O)O[C@@H]1CN(C)CC[C@@H]1c1c(O)cc(O)c2c(=O)cc(-c3ccccc3Cl)oc12 [Comparative Example 3, reference compound]

>  <Qualitative label>
label 0

$$$$
>  <Molecule>
CN1CC[C@H](c2c(O)cc(O)c3c(=O)cc(-c4ccccc4Cl)oc23)[C@H](OC(=O)[C@@H](N)CO)C1 [Comparative Example 9, reference compound]

>  <Qualitative label>
label 1

$$$$

Textbook exercise: given the entry CC(C)[C@H](N)C(=O)O[C@@H]1CN(C)CC[C@@H]1c1c(O)cc(O)c2c(=O)cc(-c3ccccc3Cl)oc12 [Comparative Example 10, reference compound] , state whether its Production rate of Alvocidib is greater than or equal to 20%.
label 0

Another molecule to look at: CCC(=O)O[C@@H]1CN(C)CC[C@@H]1c1c(O)cc(O)c2c(=O)cc(-c3ccccc3Cl)oc12
label 0
